Can you tell me melting point for the items I'm about to list?

>>> result("CCOC(=O)CCNC(=O)Nc1ccncc1")
"95 °C"
>>> result("O=C1N=c2ccc(OCCBr)cc2=N1")
"225 to 226 °C"
>>> result("CCOC(=O)C(Cc1ccc(OCCn2c(=O)sc3cc(C(=NO)C4CC4)ccc32)cc1)OCC(F)(F)F (stereo not given)")
"105 to 107 °C"
>>> result("CCCc1nn(C)c2c(=O)n(CCCc3cccc(OC(C)(C)C(=O)O)c3)c(C)nc12")
"78 to 80 °C"
>>> result("Cn1ncc2[nH]c3cccc(-c4ccc(O)cc4)c3c(=O)c21")
"> 300 °C"
>>> result("COc1ccc(C(=O)NCCn2c(C)ccc2C)cc1OC")
"82 to 84 °C"
>>> result("Cc1nc(C(C)(C)C)ccc1/C=C/C(=O)Nc1ccc2[nH]c(CO)cc2c1")
"213 °C"
>>> result("CC(=O)c1cc(C(=O)c2ccccc2Cl)c(N)s1")
"190 to 191 °C"

Would you mind giving melting point for every molecule in the list below?
1. COc1ccc(CC2CCC3NC(=O)C(CO)CC3C2)cc1 (stereo not given)
2. N#CCCN1CCN(Cc2ccc3c(c2)-c2[nH]nc(-c4ccsc4)c2C3)CC1

// result
1: 193 to 200 °C; 2: 156 to 157 °C
